target: 5-HT1A receptor (rat hippocampus) (Rattus norvegicus, UniProt P19327); construct: hippocampus; from tissue; host or cells: rat hippocampus; test: Radioligand binding assay, serotoninergic 5-HT1A receptors; details: binding assay result in %, Table 5a;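 further: test compound at 1 µM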
Sequence (P19327 whole entry): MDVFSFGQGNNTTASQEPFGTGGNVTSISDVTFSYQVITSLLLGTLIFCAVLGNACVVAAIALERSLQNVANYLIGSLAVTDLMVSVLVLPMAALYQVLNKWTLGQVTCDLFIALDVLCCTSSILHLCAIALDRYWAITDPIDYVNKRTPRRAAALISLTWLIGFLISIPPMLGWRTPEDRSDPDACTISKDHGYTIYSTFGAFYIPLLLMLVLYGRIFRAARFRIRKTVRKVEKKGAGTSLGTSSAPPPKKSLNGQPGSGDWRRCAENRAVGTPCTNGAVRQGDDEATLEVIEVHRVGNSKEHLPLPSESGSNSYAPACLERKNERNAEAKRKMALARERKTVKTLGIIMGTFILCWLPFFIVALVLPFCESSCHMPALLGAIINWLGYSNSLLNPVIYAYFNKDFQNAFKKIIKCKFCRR
Binary classification by 5-HT1A [%], with 80% as an inclusive lower bound for yes (1); all other cases are no (0).

// known answers, use as guide
[
  {
    "COMPOUND": "O=S(=O)(NC1CCN(CCOc2cccc3[nH]ccc23)CC1)c1cccc2ccccc12 [Compound 60]",
    "LABEL": "yes (1)"
  },
  {
    "COMPOUND": "O=S(=O)(NC1CN(CCOc2cccc3c2OCCO3)C1)c1cccc2ccccc12 [Compound 94]",
    "LABEL": "yes (1)"
  },
  {
    "COMPOUND": "Cc1cccc(S(=O)(=O)NC2CCN(CCCc3noc4cc(F)ccc34)CC2)c1 [Compound 33]",
    "LABEL": "no (0)"
  }
]

For this compound, is measured 5-HT1A [%] 80% or higher? O=S(=O)(NC1CCN(CCOc2cccc3ccccc23)C1)c1cccc(O)c1 (centres unmarked) [Compound 115]
yes (1)

For this compound, is measured 5-HT1A [%] 80% or higher? O=S(=O)(NC1CCN(CCOc2nsc3ccccc23)CC1)c1ccc2ccccc2c1 [Compound 40]
no (0)

For this compound, is measured 5-HT1A [%] 80% or higher? O=S(=O)(NC1CCN(CCOc2cccc3ccccc23)CC1)c1cccc(O)c1 [Compound 119]
yes (1)

For this compound, is measured 5-HT1A [%] 80% or higher? Cc1cccc(S(=O)(=O)NC2CCN(CCOc3cccc4[nH]ccc34)CC2)c1 [Compound 56]
no (0)

For this compound, is measured 5-HT1A [%] 80% or higher? O=S(=O)(NCC1CCN(CCCc2noc3cc(F)ccc23)CC1)c1ccc2ccccc2c1 [Compound 38]
no (0)
